Listed molecules paired with reported pIC50
- tested-system: human TPH1 (Homo sapiens (Human))
- Sequence (P17752 whole entry): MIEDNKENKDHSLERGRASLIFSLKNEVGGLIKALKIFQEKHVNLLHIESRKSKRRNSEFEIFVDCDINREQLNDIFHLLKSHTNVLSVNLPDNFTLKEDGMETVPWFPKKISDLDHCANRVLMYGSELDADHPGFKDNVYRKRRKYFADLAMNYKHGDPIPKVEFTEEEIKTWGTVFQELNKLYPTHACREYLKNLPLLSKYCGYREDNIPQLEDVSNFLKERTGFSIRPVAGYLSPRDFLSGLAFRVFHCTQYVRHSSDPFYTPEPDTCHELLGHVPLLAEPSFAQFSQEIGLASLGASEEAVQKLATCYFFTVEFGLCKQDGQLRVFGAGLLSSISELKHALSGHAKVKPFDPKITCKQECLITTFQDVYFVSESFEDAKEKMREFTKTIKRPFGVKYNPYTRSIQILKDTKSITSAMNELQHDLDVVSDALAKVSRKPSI
- test-method-notes: Biochemical in vitro assay using fluorescence readout (TPH1 inhibition)
- assay-context: human TPH1, fluorescence readout
Remember the convention: pIC50 equals -log10 of concentration in molar.

molecule="Cc1nn2c3c(nc2s1)CCN(C(=O)COc1ccc(C(=O)N(C)C)nc1Cl)C3c1ncccc1F (centres unmarked) [Example 1.35.2]" quantitative_result=7.35

Query: Entry CCc1nc(NS(C)(=O)=O)ccc1OCC(=O)N1CCc2nc3sc(C)nn3c2[C@@H]1c1ncc(C)cc1F [Example 1.31.16] needs its pIC50 filled in; supply it.
Reply: 7.74

Query: Fill in reported pIC50 for this entry: Cc1nn2c3c(nc2s1)CCN(C(=O)COc1ccc(S(=O)(=O)N(C)C)nc1Cl)C3c1ccc(Cl)cc1F (centres unmarked) [Example 1.4.61]
Reply: 7.43

Query: For the molecule Cn1nc(OCC(=O)N2CCc3nc4sccn4c3C2c2nc3ccccc3s2)c(Cl)c1C(F)(F)F (centres unmarked) [Example 6.12.7] , report pIC50.
Reply: 7.21
